- METHOD NOTES: Viking EC50, 50% NHS
- Format: cell-based
- SETUP CONDITIONS: method not described, read-out: Viking EC50_50% NHS
// values below are reported pEC50
# log scale: pEC50 equals minus log10 of the concentration in mol/L

{"COMPOUND": "Cc1c(C#N)cc(Cl)cc1Oc1c(C(F)(F)F)ncn(Cc2cc(F)c[nH]c2=O)c1=O", "REPORTED": 7.51}
{"COMPOUND": "N#Cc1cc(Cl)cc(Oc2c(C(F)(F)F)ncn(Cc3ccc(-c4cn[nH]c4)[nH]c3=O)c2=O)c1", "REPORTED": 7.52}
{"COMPOUND": "Cc1c(C#N)cc(Cl)cc1Oc1c(C(F)(F)F)ncn(Cc2ccc(-c3cc[nH]n3)[nH]c2=O)c1=O", "REPORTED": 6.46}
{"COMPOUND": "CC(O)c1ccc(Cn2cnc(C(F)(F)C(F)F)c(Oc3cc(Cl)cc(C#N)c3F)c2=O)c(=O)[nH]1 (single isomer, unassigned)", "REPORTED": 7.37}
{"COMPOUND": "Cc1c(C#N)cc(Cl)cc1Oc1c(C(C)F)ncn(Cc2ccc(-c3cc[nH]n3)[nH]c2=O)c1=O (stereo not shown)", "REPORTED": 6.89}
{"COMPOUND": "N#Cc1cc(Cl)cc(Oc2c(C(F)(F)C(F)(F)F)ncn(Cc3cc(F)c[nH]c3=O)c2=O)c1F", "REPORTED": 7.08}

Proceeding to the next compound to report its pEC50.
Record summary for `Cc1cc(C#N)cc(Oc2c(C(C)(F)F)ncn(Cc3c(C)cc(C)[nH]c3=O)c2=O)c1` : reported pEC50 = 7.66

----------
- METHOD NOTES: Viking EC50, 50% NHS
- Assay type: cell-based
- SETUP CONDITIONS: method not described, read-out: Viking EC50_50% NHS
Measured EC50 of individual entries
Return type: number; implicit unit nM.

{"COMPOUND": "Cc1ccc(Cn2cnc(C(F)(F)C(F)F)c(Oc3cc(F)cc(C#N)c3C)c2=O)c(=O)[nH]1 [Example 9]", "REPORTED": 15.7}
{"COMPOUND": "Cc1c(C#N)cc(C(F)F)cc1Oc1c(C(F)(F)C(F)F)ncn(Cc2ccc(CO)[nH]c2=O)c1=O [Example 25]", "REPORTED": 19.6}
{"COMPOUND": "Cc1c(C#N)cc(C(F)F)cc1Oc1c(C(F)(F)C(F)F)ncn(Cc2cc(F)c[nH]c2=O)c1=O [Example 14]", "REPORTED": 29.5}
{"COMPOUND": "CC(F)c1ncn(Cc2ccc(CO)[nH]c2=O)c(=O)c1Oc1cc(Cl)cc(C#N)c1F (single isomer, unassigned) [Example 33]", "REPORTED": 23.1}
{"COMPOUND": "Cc1cc(C)c(Cn2cnc(C(F)(F)CF)c(Oc3cc(C(F)F)cc(C#N)c3C)c2=O)c(=O)[nH]1 [Example 41]", "REPORTED": 59.8}
{"COMPOUND": "Cc1c(C#N)cc(C(F)F)cc1Oc1c(C(F)(F)F)ncn(Cc2ccc[nH]c2=O)c1=O [Example 16]", "REPORTED": 7.08}
{"COMPOUND": "Cc1cc(C)c(Cn2cnc(C(F)(F)C(F)F)c(Oc3cc(C(F)F)cc(C#N)c3C)c2=O)c(=O)[nH]1 [Example 5]", "REPORTED": 47.1}
{"COMPOUND": "Cc1cc(C)c(Cn2cnc(C(F)(F)C(F)F)c(Oc3cc(C#N)cc(C(F)F)c3)c2=O)c(=O)[nH]1 [Example 40]", "REPORTED": 39.2}
{"COMPOUND": "N#Cc1cc(Cl)cc(Oc2c(C(F)(F)F)ncn(Cc3cc(F)c[nH]c3=O)c2=O)c1Cl [Example 36]", "REPORTED": 50}
{"COMPOUND": "Cc1ccc(Cn2cnc(C(F)(F)F)c(Oc3cc(Cl)cc(C#N)c3F)c2=O)c(=O)[nH]1 [Example 4]", "REPORTED": 41.1}

compound N#Cc1cc(Cl)cc(Oc2c(C(F)(F)C(F)F)ncn(Cc3ccc[nH]c3=O)c2=O)c1Cl [Example 8] , EC50 observed: 26.9

Record Cc1c(C#N)cc(C(F)F)cc1Oc1c(C(F)(F)C(F)(F)F)ncn(Cc2cc(F)c[nH]c2=O)c1=O [Example 38] . Reported EC50: 96.8

// N#Cc1cc(Oc2c(C(F)(F)F)ncn(Cc3cc(F)c[nH]c3=O)c2=O)cc(C(F)F)c1 [Example 35] : EC50 value = 15.6

----------
- System: infected PBMCs (VSV-G pseudotyped HIV virus)
- METHOD NOTES: cells
- Assay type: cell-based, human
- SETUP CONDITIONS: read-out: SMACK EC50_50% NHS
OBSERVATION TYPE: EC50 (nM)
Just the number please, in nM, no unit attached.

Here CC(F)c1ncn(Cc2ccc(CO)[nH]c2=O)c(=O)c1Oc1cc(Cl)cc(C#N)c1F (single isomer, unassigned) [Example 33] was tested on infected PBMCs (VSV-G pseudotyped HIV virus), and its EC50 came to 389

----------
Some compounds, each annotated with its measured EC50.
- METHOD NOTES: Viking EC50, 50% NHS
- Assay type: cell-based
- SETUP CONDITIONS: method not described, read-out: Viking EC50_50% NHS
A bare number is not enough; add the unit after it.

Guide cases for EC50, answers given:
{"MOLECULAR STRING": "Cc1cc(C)c(Cn2cnc(C(F)(F)C(F)F)c(Oc3cc(Br)cc(C#N)c3)c2=O)c(=O)[nH]1", "EC50": "29.1 nM"}
{"MOLECULAR STRING": "Cc1ccc(Cn2cnc(C(F)(F)C(F)F)c(Oc3cc(Cl)cc(C#N)c3F)c2=O)c(=O)[nH]1", "EC50": "33.5 nM"}

Moving on to the next compound.
So for `Cc1c(C#N)cc(C(F)F)cc1Oc1c(C(F)(F)C(F)F)ncn(Cc2ccc[nH]c2=O)c1=O` , the logged EC50 turned out to be 17.1 nM
